Catalogue of GI50 values
- Test system: HT-29
- experiment description: NCI tumour cell line growth inhibition, 48 h
Active and inactive are the calls of the source. Cut-off read from the data, not from the text of the source: active = GI50 up to about 1.1 µM and inactive = higher.

As a guide, the following entries are already answered.
[
  {
    "compound": "O=C1C2C3C=C4c5ccccc5N(c5ccccc5)C4(C2C(=O)N1c1ccc(Br)cc1)[C@H]1C(=O)N(c2ccc(Br)cc2)C(=O)[C@@H]31 (some centres undefined)",
    "GI50": "> 100 µM (inactive)"
  },
  {
    "compound": "Cc1ccc(NC(S)=Nc2c(C)n(C)n(-c3ccccc3)c2=O)cc1",
    "GI50": "> 100 µM (inactive)"
  },
  {
    "compound": "COc1ccc(OC)c(N2C(=O)/C(=C\\c3ccccc3)SC2c2cc(OC)c(OC)c(OC)c2)c1 (centres undefined)",
    "GI50": "> 87.3 µM (inactive)"
  },
  {
    "compound": "COC(=O)c1cccc(C(=O)OC)c1",
    "GI50": "> 100 µM (inactive)"
  },
  {
    "compound": "CC(C)(CN1CCCCC1)C(=O)/C=C/c1ccc(Br)cc1",
    "GI50": "3.1 µM (inactive)"
  }
]

Documented GI50 of CCOc1ccc2c(c1)NC(=O)C(C1OC(c3ccccc3)=CC1=O)S2 (centres undefined) : 20.2 µM (inactive)

Documented GI50 of O=c1[nH]cnc2c1ncn2C1SC(CO)C(O)C1O (centres undefined) : > 100 µM (inactive)

Documented GI50 of CC(=O)O[C@H]1C(=O)[C@@]2(C)C(C(OC(=O)c3ccccc3)C3[C@@H](O)C(OC(=O)[C@@H](O)[C@H](NC(=O)c4ccccc4)c4ccc(C(F)(F)F)cc4)C(C)=C1C3(C)C)[C@]1(OC(C)=O)CO[C@@H]1C[C@@H]2O (some centres undefined) : 12.6 µM (inactive)

Documented GI50 of Cc1ccc(S(=O)(=O)N/N=C2\CC3C4C=CC3C2C4)cc1 (centres undefined) : > 100 µM (inactive)

###

- System: SF-295
- experiment description: NCI tumour cell line growth inhibition, 48 h
Calls of active or inactive are those of the source. Cut-off read from the data, not from the text of the source: active = GI50 up to about 1.1 µM and inactive = higher.
Write down one outcome, taken from yes (1) for active, no (0) for inactive

Example cases with answers are listed next.
[
  {
    "compound": "O=C(/C=C/c1ccccc1Cl)c1cccc2ccccc12",
    "group": "no (0)"
  },
  {
    "compound": "Nc1cc2c3c(c1)Oc1cc(N)cc4c1C3c1c(cc(N)cc1O4)O2",
    "group": "no (0)"
  },
  {
    "compound": "Cc1cc(C)c(S(=O)(=O)N2CCCN(S(=O)(=O)c3c(C)cc(C)cc3C)OCCCON(S(=O)(=O)c3c(C)cc(C)cc3C)CCCN(S(=O)(=O)c3c(C)cc(C)cc3C)OCCCO2)c(C)c1",
    "group": "no (0)"
  },
  {
    "compound": "COc1cc(/C=N/n2c(-c3ccccc3)nn(C(C)=O)c2=O)cc(OC)c1OC",
    "group": "yes (1)"
  },
  {
    "compound": "CO[C@@H](c1ccccc1)[C@H](O)[C@@](O)(c1ccccc1)P(=O)(OC)OC",
    "group": "no (0)"
  }
]

Would you mind telling me which call this test gave COc1cc2c(cc1OC)C(OC)N(C)c1c-2ccc2cc3c(cc12)OCO3 (stereo not given) ?
no (0)

Would you mind telling me which call this test gave Cc1ccc(NC(=S)NNC(=O)c2cc(-c3ccccc3)nc3ccccc23)cc1 ?
no (0)

Would you mind telling me which call this test gave O=c1[nH]c(=O)n(C2CC(O)C(CO)O2)cc1OC/C=C/Cc1ccccc1 (stereo not given) ?
no (0)

Would you mind telling me which call this test gave O=S(=O)(O)c1ccc2c(/N=N/c3c(O)ccc4ccccc34)cccc2c1 ?
no (0)

Would you mind telling me which call this test gave C/C(=N/NC(=O)c1ccncc1)c1ccc(NC(=O)C(=O)Nn2c(S)nc3ccccc3c2=O)cc1 ?
no (0)

Would you mind telling me which call this test gave O=C1CC2CCCC23CC2(CCN13)OCCO2 (stereo not given) ?
no (0)

Would you mind telling me which call this test gave Cc1cc(C)c([S@@](=O)O[C@@H]2[C@H]3OC(C)(C)O[C@H]3O[C@@H]2[C@H]2COC(C)(C)O2)c(C)c1 ?
no (0)

Would you mind telling me which call this test gave O=C1CSC(c2cccc([N+](=O)[O-])c2)N1c1ccc(-c2ccc(-n3c(-c4ccccc4)nc4ccccc4c3=O)cc2)cc1 (stereo not given) ?
no (0)

Would you mind telling me which call this test gave O=C(Nc1ccc(Br)c2ccccc12)c1ccc2ccccc2c1O ?
no (0)

Would you mind telling me which call this test gave COC(=O)C(Cc1ccccc1)NP(=O)(O)OCC1OC(n2cc(Br)c(=O)[nH]c2=O)CC1O (stereo not given) ?
no (0)

Would you mind telling me which call this test gave COC(=O)c1cccc(C(=O)OC)c1 ?
no (0)

Would you mind telling me which call this test gave Cc1noc(C)c1/N=N/c1ccc2nonc2c1N ?
no (0)
